assay method text: Cytotoxicity against mouse BV2 cells assessed as cell viability at 40 uM after 24 hrs by MTT assay relative to control
Type: cell-based, BV-2
assay context: read-out: Activity
Entries and their measured viability at 24 h, 40 µM follow.

| smiles data | viability at 24 h, 40 µM / % |
| --- | --- |
| COC(=O)CC[C@@H](C)[C@H]1CC[C@H]2[C@@H]3[C@H](F)C(=O)[C@H]4C[C@H](O)CC[C@]4(C)[C@H]3CC[C@]12C | 73.7 |
| C[C@H]([C@H](O)CO)[C@H]1CC[C@H]2[C@@H]3CC(=O)[C@H]4C[C@H](O)CC[C@]4(C)[C@H]3CC[C@]12C | 95.9 |
| COC(=O)CC[C@@H](C)[C@H]1CC[C@H]2[C@@H]3CC(=O)[C@H]4C[C@@H](F)CC[C@]4(C)[C@H]3CC[C@]12C | 84.1 |
| COC(=O)CC[C@@H](C)[C@H]1CC[C@H]2[C@@H]3[C@H](F)C(=O)[C@H]4C[C@@H]5O[C@@H]5C[C@]4(C)[C@H]3CC[C@]12C | 97.2 |
| COC(=O)CC[C@@H](C)[C@H]1CC[C@H]2[C@@H]3CC(=O)[C@H]4C[C@H](O)[C@@H](Br)C[C@]4(C)[C@H]3CC[C@]12C | 91.4 |
| COC(=O)CC[C@@H](C)[C@H]1CC[C@H]2[C@@H]3CC(=O)[C@H]4C[C@@H](Br)CC[C@]4(C)[C@H]3CC[C@]12C | 81.5 |
| COC(=O)CC[C@@H](C)[C@H]1CC[C@H]2[C@@H]3[C@H](F)C(=O)[C@H]4C[C@H](O)[C@@H](O)C[C@]4(C)[C@H]3CC[C@]12C | 50.8 |
| COC(=O)CC[C@@H](C)[C@H]1CC[C@H]2[C@@H]3[C@H](F)C(=O)[C@H]4C[C@@H](F)CC[C@]4(C)[C@H]3CC[C@]12C | 92.2 |
| C=C[C@@H](C)[C@H]1CC[C@H]2[C@@H]3[C@H](O)C(=O)[C@H]4C[C@H](O)[C@@H](F)C[C@]4(C)[C@H]3CC[C@]12C | 55.9 |
| C=C[C@@H](C)[C@H]1CC[C@H]2[C@@H]3[C@H](F)C(=O)[C@H]4C[C@H](O)CC[C@]4(C)[C@H]3CC[C@]12C | 76.6 |
| COC(=O)CC[C@@H](C)[C@H]1CC[C@H]2[C@@H]3[C@H](F)C(=O)[C@H]4C[C@@H](O)CC[C@]4(C)[C@H]3CC[C@]12C | 23.1 |
| C[C@H]([C@H](O)CO)[C@H]1CC[C@H]2[C@@H]3[C@H](F)C(=O)[C@H]4C[C@H](O)CC[C@]4(C)[C@H]3CC[C@]12C | 95.1 |

---

assay method text: Cytotoxicity against mouse BV2 cells assessed as cell viability at 40 uM after 24 hrs by MTT assay relative to control
Type: cell-based, BV-2
assay context: read-out: Activity
parameter measured: viability at 24 h, 40 µM (%)

| smiles data | val |
| --- | --- |
| COC(=O)CC[C@@H](C)[C@H]1CC[C@H]2[C@@H]3CC(=O)[C@H]4C[C@@H](Cl)CC[C@]4(C)[C@H]3CC[C@]12C | 79 |
| COC(=O)CC[C@@H](C)[C@H]1CC[C@H]2[C@@H]3[C@H](O)C(=O)[C@H]4C[C@@H](O)CC[C@]4(C)[C@H]3CC[C@]12C | 96.3 |
| COC(=O)CC[C@@H](C)[C@H]1CC[C@H]2[C@@H]3CC(=O)[C@H]4CC(=O)CC[C@]4(C)[C@H]3CC[C@]12C | 78 |
| COC(=O)CC[C@@H](C)[C@H]1CC[C@H]2[C@@H]3[C@H](O)C(=O)[C@H]4C[C@H](O)CC[C@]4(C)[C@H]3CC[C@]12C | 95.4 |
| COC(=O)CC[C@@H](C)[C@H]1CC[C@H]2[C@@H]3[C@H](F)C(=O)[C@H]4C[C@H](O)[C@H](O)C[C@]4(C)[C@H]3CC[C@]12C | 69.9 |
| COC(=O)CC[C@@H](C)[C@H]1CC[C@H]2[C@@H]3[C@H](F)C(=O)[C@H]4C[C@H](O)[C@@H](F)C[C@]4(C)[C@H]3CC[C@]12C | 96.2 |
| COC(=O)CC[C@@H](C)[C@H]1CC[C@H]2[C@@H]3CC(=O)[C@H]4C[C@H](O)[C@@H](F)C[C@]4(C)[C@H]3CC[C@]12C | 95.8 |
| C=C[C@@H](C)[C@H]1CC[C@H]2[C@@H]3CC(=O)[C@H]4C[C@H](O)CC[C@]4(C)[C@H]3CC[C@]12C | 96.4 |
| C=C[C@@H](C)[C@H]1CC[C@H]2[C@@H]3[C@H](O)C(=O)[C@H]4C[C@@H](F)CC[C@]4(C)[C@H]3CC[C@]12C | 87 |
| COC(=O)CC[C@@H](C)[C@H]1CC[C@H]2[C@@H]3CC(=O)[C@H]4C[C@H](O)[C@@H](O)C[C@]4(C)[C@H]3CC[C@]12C | 79.5 |
| C=C[C@@H](C)[C@H]1CC[C@H]2[C@@H]3[C@H](F)C(=O)[C@H]4C[C@H](O)[C@@H](F)C[C@]4(C)[C@H]3CC[C@]12C | 86.8 |
| COC(=O)CC[C@@H](C)[C@H]1CC[C@H]2[C@@H]3CC(=O)[C@H]4C[C@@H](O)CC[C@]4(C)[C@H]3CC[C@]12C | 27.8 |
| C[C@H]([C@H](O)CO)[C@H]1CC[C@H]2[C@@H]3[C@H](O)C(=O)[C@H]4C[C@@H](F)CC[C@]4(C)[C@H]3CC[C@]12C | 78.6 |
| C[C@]12CC[C@H](O)CC1=CC[C@@H]1[C@@H]2CC[C@]2(C)C(=O)CC[C@@H]12 | 99.1 |
| C[C@H]([C@H](O)CO)[C@H]1CC[C@H]2[C@@H]3CC(=O)[C@H]4C[C@H](O)[C@H](O)C[C@]4(C)[C@H]3CC[C@]12C | 94 |
| COC(=O)CC[C@@H](C)[C@H]1CC[C@H]2[C@@H]3CC(=O)[C@H]4C[C@H](O)CC[C@]4(C)[C@H]3CC[C@]12C | 87.7 |
| C[C@H]([C@H](O)CO)[C@H]1CC[C@H]2[C@@H]3[C@H](F)C(=O)[C@H]4C[C@@H](F)CC[C@]4(C)[C@H]3CC[C@]12C | 81.7 |
| C=C[C@@H](C)[C@H]1CC[C@H]2[C@@H]3CC(=O)[C@H]4C[C@H](O)[C@H](O)C[C@]4(C)[C@H]3CC[C@]12C | 48.2 |
| COC(=O)CC[C@@H](C)[C@H]1CC[C@H]2[C@@H]3[C@H](O)C(=O)[C@H]4C[C@H](O)[C@@H](F)C[C@]4(C)[C@H]3CC[C@]12C | 80.5 |
| COC(=O)CC[C@@H](C)[C@H]1CC[C@H]2[C@@H]3CC(=O)[C@H]4C[C@@H]5O[C@@H]5C[C@]4(C)[C@H]3CC[C@]12C | 99.5 |
| COC(=O)CC[C@@H](C)[C@H]1CC[C@H]2[C@@H]3[C@H](O)C(=O)[C@H]4C[C@@H](F)CC[C@]4(C)[C@H]3CC[C@]12C | 92.4 |
| C=C[C@@H](C)[C@H]1CC[C@H]2[C@@H]3[C@H](O)C(=O)[C@H]4C[C@@H](O)CC[C@]4(C)[C@H]3CC[C@]12C | 81.8 |

---

assay method text: Cytotoxicity against mouse BV2 cells assessed as cell viability at 40 uM after 24 hrs by MTT assay relative to control
Assay type: cell-based, BV-2
assay context: read-out: Activity

| smiles data | viability at 24 h, 40 µM |
| --- | --- |
| C=C[C@@H](C)[C@H]1CC[C@H]2[C@@H]3[C@H](O)C(=O)[C@H]4C[C@H](O)CC[C@]4(C)[C@H]3CC[C@]12C | 76.6% |
| C[C@H]([C@H](O)CO)[C@H]1CC[C@H]2[C@@H]3[C@H](O)C(=O)[C@H]4C[C@H](O)CC[C@]4(C)[C@H]3CC[C@]12C | 95.7% |
| COC(=O)CC[C@@H](C)[C@H]1CC[C@H]2[C@@H]3CC(=O)[C@H]4C[C@H](O)[C@H](O)C[C@]4(C)[C@H]3CC[C@]12C | 81.1% |
